Ref: the NIST ThermoML archive (doi:10.1021/je034007i)

# Assay context: 308.15 K; 101.33 kPa; Liquid; vibrating tube
Measured quantity: mass density (kg/m3)
Answers are plain numbers, in kg/m3.

Batch of 2 molecules: report mass density for each.
1. CC(O)CO (centres undefined)
2. C[S+](C)[O-] [dimethyl sulfoxide]

[A]
1026.15
1085.5

Batch of 2 molecules: report mass density for each.
1. OCCOCCO
2. OCCOCCOCCO

[A]
[1105.65, 1112.1]
